For each entry below, report its Neutralization - RSV A2 IC50 (pM) value.
# System: RSV F on RSV subtype A virus (RSV-A2) (Respiratory Syncytial Virus, subtype A, …, UniProt P03420 26-574)
# Run Description: cell-based or functional assay

Sure, the documented Neutralization - RSV A2 IC50 (pM) for ADI-41302 (antibody, V domains shown) VH: QVQLVESGGGVVQPGRSLRLSCAASGFTFSSYAMQWVRQAPGKGLEWVAVMTNDGDDKYYADSVRGRFTISRDNSKNTLYLQMNNLRPEDTAVYYCARDLFEWWELLGYCYAMDVWGQGTTVTVSS VL: QSVLTQPPSASGSPGQSVTISCTGTSSDVGAYNYVSWYQQHPGKAPKLIIYEVYKRPSGVPDRFFGSKSGNTASLTVSGLQAEDEADYYCSSYAGSNTLGVFGGGTKVTVL is 133 pM

Sure, the documented Neutralization - RSV A2 IC50 (pM) for ADI-41232 (antibody, V domains shown) VH: QVQLVQSGAEVKKPGASVKVSCKASGYTFTHYGISWVRQAPGQGLEWMAWISAYNGNTNYAQKLQDRVTVTTDTSTSTAYMELRSLRSDDTALYYCARDSMGGTTLFDYWGQGTLVTVSS VL: DIVLTQTPLSLPVTLGQPASISCRSSQSLVYSDGNTYLNWFQQRPGQSPRRLIYKVSNRDSGVPDRFTGSGSGTDFTLKISRVEAEDVGVYYCMQGTHWPPMYTFGQGTKLEIK is 104 pM

Sure, the documented Neutralization - RSV A2 IC50 (pM) for ADI-41221 (antibody, V domains shown) VH: EVQLLESGGGLVKPGGSLRLSCAASGFTFSDYTMNWVRQAPGKGLEWVSSISITSSHIYYADSVKGRFTISRDNAKNSLYLQINSLRAEDTAAYYCARELGFASSSYSYYYGMDVWGQGTTVTVSS VL: QSALTQPRSVSGSPGQSVTISCTGTSSDVGDYNSVSWYQQHPGTAPKLIIFDVTQRPSGVPDRFSGSKSANTASLTISGLQPEDEADYYCCSFAGNYVFGTGTKVTVL is 65.4 pM

Sure, the documented Neutralization - RSV A2 IC50 (pM) for ADI-41259 (antibody, V domains shown) VH: QVQLVESGGRLVKPGGSLRLSCAASGFTFSDFYMSWIRQAPGKGLEWVSYISSSGDDPNYADSVKGRFTISRDNSKNSLYLQMNSLRAEDTAVYYCARDEVGWNNLDYYFGMDVWGQGTTVTVSS VL: DIVMTQSPLSLPVTLGQPASISCRSSQSLVHSDGNTYLSWFHQRPGQSPRRLIYKVSNRDSGVPNRFSGGGSGTDFTLKISRVEAEDVGFFYCMQGTHWQKTFGQGTKVEIK is 122 pM

Sure, the documented Neutralization - RSV A2 IC50 (pM) for ADI-20964 (antibody, V domains shown) VH: QVQLVQSGAEVKKPGASVKVSCKASGYTFTHYGISWVRQAPGQGLEWMGWISAYNGNTNYAQKLQGRVTMTTDTSTSTAYMEVRSLRYDDTAVYYCARDVPVEAATSPEFWGQGTLVTVSS VL: DIVMTQTPLSLPVTLGQPASISCRSSQSLVYSDGNTYLSWFQQRPGQSPRRLIYKVSNRDSGVPNRFSGSGSGTDFTLKISRVEAEDVGVYYCVQNTHWPAYTFGQGTKVEIK is 162 pM

These entries and their values trace back to patent US20260258115A1.
